Target: recombinant human DPP9 (Homo sapiens)
Construct: purchased R&D Systems
Sequence (Q86TI2 whole entry): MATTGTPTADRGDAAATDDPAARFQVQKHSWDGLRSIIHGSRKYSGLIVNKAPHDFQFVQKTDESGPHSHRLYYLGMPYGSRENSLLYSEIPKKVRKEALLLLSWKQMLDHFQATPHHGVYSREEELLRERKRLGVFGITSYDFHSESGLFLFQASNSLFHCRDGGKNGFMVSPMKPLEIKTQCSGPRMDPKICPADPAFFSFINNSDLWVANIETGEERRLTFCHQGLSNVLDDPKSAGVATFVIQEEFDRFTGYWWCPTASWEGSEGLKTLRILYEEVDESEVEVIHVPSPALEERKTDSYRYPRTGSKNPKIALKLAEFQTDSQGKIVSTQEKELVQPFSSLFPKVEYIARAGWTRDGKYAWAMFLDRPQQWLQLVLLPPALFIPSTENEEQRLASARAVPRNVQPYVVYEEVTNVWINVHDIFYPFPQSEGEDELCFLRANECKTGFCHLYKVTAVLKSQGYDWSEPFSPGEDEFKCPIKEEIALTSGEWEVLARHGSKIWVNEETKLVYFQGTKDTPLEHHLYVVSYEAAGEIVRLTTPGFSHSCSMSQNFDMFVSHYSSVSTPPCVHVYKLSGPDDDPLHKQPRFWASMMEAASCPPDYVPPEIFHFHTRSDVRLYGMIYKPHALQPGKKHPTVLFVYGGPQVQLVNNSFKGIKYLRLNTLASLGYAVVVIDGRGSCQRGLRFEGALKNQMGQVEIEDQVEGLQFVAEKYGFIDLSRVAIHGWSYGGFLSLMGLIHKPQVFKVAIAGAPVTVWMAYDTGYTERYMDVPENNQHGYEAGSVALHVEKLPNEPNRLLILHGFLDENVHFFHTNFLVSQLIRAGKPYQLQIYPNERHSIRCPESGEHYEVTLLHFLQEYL
Test: DPP9 inhibition, fluorogenic substrate H-Gly-Pro-AMC
Type: biochemical
Details: 25° C., H-Gly-Pro-AMC substrate
Protocol: The compounds according to the present technology were evaluated in terms of the inhibitory effect on the activity of dipeptidyl peptidases including FAP by using a substrate producing fluorescent substances upon enzymatic decomposition. […] Fluorescence intensity was measured using a microplate reader (Flexstation3, Molecular Devices) under the wavelength condition exciting at 380 nm and reading the emission at 460 nm. […]
Reported Endpoint: IC50

N#C[C@@H]1CCCN1C(=O)CN1CC[C@H](Oc2cccc3[nH]c(=O)ccc23)C1; > 100 µM

Give IC50 for COc1ccc(NC2CCN(CC(=O)N3CCC[C@H]3C#N)CC2)c2cccnc12
> 100 µM

Identify IC50 associated with the compound N#C[C@@H]1CCCN1C(=O)CN1CC[C@H](NC(=O)c2coc3ccccc23)C1
> 100 µM

Look up and report measured IC50 for this entry: N#C[C@@H]1CCCN1C(=O)CN1CCC(Oc2ccnc3ccccc23)CC1
> 100 µM

Please report the measured IC50 for COc1ccc2c(O[C@H]3CCN(CC(=O)N4CCC[C@H]4C#N)C3)ccnc2c1
> 100 µM

* * *

IC50 reference
target: DPP4 (Homo sapiens); assay: DPP4 inhibition, fluorogenic substrate H-Gly-Pro-AMC; assay type: biochemical; design: purchased R&D Systems; conditions: recombinant human DPP4
Sequence (P27487 whole entry): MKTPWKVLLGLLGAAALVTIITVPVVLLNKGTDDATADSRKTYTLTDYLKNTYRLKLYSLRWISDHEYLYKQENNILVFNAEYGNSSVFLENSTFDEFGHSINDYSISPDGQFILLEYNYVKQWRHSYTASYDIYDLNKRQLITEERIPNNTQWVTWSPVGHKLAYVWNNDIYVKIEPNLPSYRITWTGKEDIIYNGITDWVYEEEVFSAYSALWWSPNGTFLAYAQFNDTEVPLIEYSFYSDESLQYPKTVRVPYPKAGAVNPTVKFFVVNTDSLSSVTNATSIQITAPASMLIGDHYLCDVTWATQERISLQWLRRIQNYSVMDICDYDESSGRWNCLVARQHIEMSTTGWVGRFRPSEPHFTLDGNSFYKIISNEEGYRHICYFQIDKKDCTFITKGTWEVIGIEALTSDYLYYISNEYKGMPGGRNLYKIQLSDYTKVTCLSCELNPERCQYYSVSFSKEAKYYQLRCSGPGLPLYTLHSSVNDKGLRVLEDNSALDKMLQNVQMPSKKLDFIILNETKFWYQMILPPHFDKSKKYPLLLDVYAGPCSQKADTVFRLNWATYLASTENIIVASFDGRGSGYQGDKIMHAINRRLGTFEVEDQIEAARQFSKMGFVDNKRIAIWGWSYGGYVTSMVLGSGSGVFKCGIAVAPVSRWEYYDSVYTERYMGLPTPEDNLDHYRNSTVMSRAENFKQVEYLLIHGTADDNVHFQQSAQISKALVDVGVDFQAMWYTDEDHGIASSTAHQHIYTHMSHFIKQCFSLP

Solved cases below.
CN(c1cccc2ncccc12)C1CCN(CC(=O)N2CCC[C@H]2C#N)CC1; > 10 µM
COc1cccc2cc(NC3CCN(CC(=O)N4C[C@@H](F)C[C@H]4C#N)CC3)cnc12; ≥ 10 µM

# evaluate next
Report value only: IC50, DPP4 (Homo sapiens), N#C[C@@H]1C[C@H](F)CN1C(=O)CN1CCC(Oc2cc(C(F)(F)F)nc3ccc(F)cc23)CC1
> 10 µM

* * *

target: DPP4 (Homo sapiens); experiment: DPP4 inhibition, fluorogenic substrate H-Gly-Pro-AMC; format: biochemical; set-up: purchased R&D Systems; details: recombinant human DPP4
# class assignment by measured IC50: zone 1 (below 3 µM), zone 2 (3 µM to below 9 µM), zone 3 (9 µM or more)

Cc1ccc(N[C@H]2CCN(CC(=O)N3CCC[C@H]3C#N)C2)c2cccnc12; zone 3
N#C[C@@H]1C[C@H](F)CN1C(=O)CN1CC[C@H](Nc2cc(C(F)(F)F)c3ncccc3c2)C1; zone 1
Cc1cccc2c(NC3CCN(CC(=O)N4CCC[C@H]4C#N)CC3)nc(Cl)nc12; zone 3
COc1cc(N[C@@H]2CCN(CC(=O)N3C[C@@H](F)C[C@H]3C#N)C2)c2cccnc2c1; zone 2
Cc1ccc(N[C@@H]2CCN(CC(=O)N3C[C@@H](F)C[C@H]3C#N)C2)c2cccnc12; zone 1
COc1ccc2ncc(N(C)C3CCN(CC(=O)N4C[C@@H](F)C[C@H]4C#N)CC3)cc2c1; zone 3
N#C[C@@H]1CCCN1C(=O)CN1CC[C@@H](Nc2ccc(OC(F)(F)F)c3ncccc23)C1; zone 3
COc1ccc2ncccc2c1N[C@@H]1CCN(CC(=O)N2C[C@@H](F)C[C@H]2C#N)C1; zone 1

For the record Cc1cnc2cccc(N[C@@H]3CCN(CC(=O)N4CCC[C@H]4C#N)C3)c2c1 , report the class its IC50 corresponds to.
zone 2

Entry N#C[C@@H]1C[C@H](F)CN1C(=O)CN1CC[C@@H](Nc2ccnc3ccc(Cl)cc23)C1 belongs to which category?
zone 2

Please classify: CC(=O)N1CCc2c(NC3CCN(CC(=O)N4C[C@@H](F)C[C@H]4C#N)CC3)cccc21
zone 1

# classify by IC50 band: CNC(=O)c1ccc(N[C@H]2CCN(CC(=O)N3CCC[C@H]3C#N)C2)c2cccnc12
zone 3

Field: class (IC50) — entry: COc1ccc2nc(C)cc(OC3CCN(CC(=O)N4C[C@@H](F)C[C@H]4C#N)CC3)c2c1
zone 3

* * *

biological target: recombinant human DPP7 (Homo sapiens, UniProt Q9UHL4); construct: purchased R&D Systems; test: DPP7 inhibition, fluorogenic substrate Lys-Pro-AMC; format: biochemical; details: recombinant human DPP7
Reported Endpoint: pIC50
Remember the convention: pIC50 equals -log10 of concentration in molar.

N#Cc1cnc2cccc(N[C@H]3CCN(CC(=O)N4CCC[C@H]4C#N)C3)c2c1; 5.15
Cc1cccc2c(NC3CCN(CC(=O)N4CCC[C@H]4C#N)CC3)nc(Cl)nc12; 6.01

Look up and report measured pIC50 for this entry: CN(c1cc2ccccc2cn1)C1CCN(CC(=O)N2CCC[C@H]2C#N)CC1
4.98

* * *

biological target: recombinant human DPP7 (Homo sapiens); construct: purchased R&D Systems; assay: DPP7 inhibition, fluorogenic substrate Lys-Pro-AMC; format: biochemical
Reported Endpoint: IC50 (nM)
Give the number; nM is assumed, so skip it.

N#C[C@@H]1CCCN1C(=O)CN1CC[C@H](Nc2cncc3ccccc23)C1 [Example 19]; 206
N#C[C@@H]1CCCN1C(=O)CN1CC[C@@H](Nc2cncc3ccccc23)C1 [Example 24]; 524

Next compound, please.
State, in one line, measured IC50 of COc1ccc2nccc(O[C@H]3CCN(CC(=O)N4CC(F)(F)C[C@H]4C#N)C3)c2c1 [Example 103]
174

* * *

Reported pIC50 values follow for various molecules
molecular target: Recombinant human FAP (Homo sapiens, UniProt Q12884); construct: purchased R&D systems; assay: FAP inhibition, fluorogenic substrate Z-Gly-Pro-AMC; format: biochemical; conditions: recombinant human FAP, substrate Z-Gly-Pro-AMC
Sequence (Q12884 whole entry): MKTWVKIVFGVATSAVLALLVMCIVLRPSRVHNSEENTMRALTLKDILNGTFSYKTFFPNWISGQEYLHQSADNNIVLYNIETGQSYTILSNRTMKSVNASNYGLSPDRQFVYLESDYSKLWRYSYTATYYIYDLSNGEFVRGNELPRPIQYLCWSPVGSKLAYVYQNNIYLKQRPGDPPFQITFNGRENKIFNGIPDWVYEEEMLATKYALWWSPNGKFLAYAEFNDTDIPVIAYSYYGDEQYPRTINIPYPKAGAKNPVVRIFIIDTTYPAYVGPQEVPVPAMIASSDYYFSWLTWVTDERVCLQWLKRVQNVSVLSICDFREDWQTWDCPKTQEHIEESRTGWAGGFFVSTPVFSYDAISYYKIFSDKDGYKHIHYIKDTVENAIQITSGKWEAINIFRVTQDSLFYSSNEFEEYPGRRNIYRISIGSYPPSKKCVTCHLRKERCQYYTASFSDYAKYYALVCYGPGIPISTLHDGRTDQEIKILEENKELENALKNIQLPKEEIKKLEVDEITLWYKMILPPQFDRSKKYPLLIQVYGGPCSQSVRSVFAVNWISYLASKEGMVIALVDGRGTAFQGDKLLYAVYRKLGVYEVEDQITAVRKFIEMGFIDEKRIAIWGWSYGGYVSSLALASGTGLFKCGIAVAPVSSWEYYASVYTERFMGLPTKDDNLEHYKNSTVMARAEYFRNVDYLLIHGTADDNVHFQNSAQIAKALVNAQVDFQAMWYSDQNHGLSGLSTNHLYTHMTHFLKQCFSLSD
Quick note: pIC50 means taking -log10 of the concentration in moles per liter.

For the molecule CN(c1cncc2ccoc12)C1CCN(CC(=O)N2C[C@@H](F)C[C@H]2C#N)CC1 , give its measured pIC50 value.
8.09

Give recorded pIC50. COc1cc2nccc(O[C@H]3CCN(CC(=O)N4C[C@@H](F)C[C@H]4C#N)C3)c2cc1OC
8.72

State, in one line, measured pIC50 of COc1cc(N[C@H]2CCN(CC(=O)N3CCC[C@H]3C#N)C2)c2cccnc2c1
8.82
